# TARGET ENTITY: Alpha-1A/Alpha-1B/Alpha-1D adrenergic receptor (Rattus norvegicus, UniProt P15823+P43140+P23944)
# Sequence (P15823 whole entry): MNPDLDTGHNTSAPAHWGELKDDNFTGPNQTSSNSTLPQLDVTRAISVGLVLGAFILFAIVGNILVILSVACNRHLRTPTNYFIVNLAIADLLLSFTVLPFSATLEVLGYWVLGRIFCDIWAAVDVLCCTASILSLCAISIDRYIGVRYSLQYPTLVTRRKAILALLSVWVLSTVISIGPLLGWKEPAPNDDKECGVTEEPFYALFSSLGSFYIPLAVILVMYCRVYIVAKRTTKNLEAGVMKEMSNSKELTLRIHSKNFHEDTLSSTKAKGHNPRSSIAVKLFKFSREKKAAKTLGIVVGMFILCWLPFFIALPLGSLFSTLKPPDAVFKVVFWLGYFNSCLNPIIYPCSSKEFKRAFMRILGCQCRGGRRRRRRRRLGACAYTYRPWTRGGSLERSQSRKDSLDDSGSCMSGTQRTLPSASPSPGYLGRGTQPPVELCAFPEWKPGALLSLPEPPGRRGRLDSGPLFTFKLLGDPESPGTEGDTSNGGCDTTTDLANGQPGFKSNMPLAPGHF
# Sequence (P43140 whole entry): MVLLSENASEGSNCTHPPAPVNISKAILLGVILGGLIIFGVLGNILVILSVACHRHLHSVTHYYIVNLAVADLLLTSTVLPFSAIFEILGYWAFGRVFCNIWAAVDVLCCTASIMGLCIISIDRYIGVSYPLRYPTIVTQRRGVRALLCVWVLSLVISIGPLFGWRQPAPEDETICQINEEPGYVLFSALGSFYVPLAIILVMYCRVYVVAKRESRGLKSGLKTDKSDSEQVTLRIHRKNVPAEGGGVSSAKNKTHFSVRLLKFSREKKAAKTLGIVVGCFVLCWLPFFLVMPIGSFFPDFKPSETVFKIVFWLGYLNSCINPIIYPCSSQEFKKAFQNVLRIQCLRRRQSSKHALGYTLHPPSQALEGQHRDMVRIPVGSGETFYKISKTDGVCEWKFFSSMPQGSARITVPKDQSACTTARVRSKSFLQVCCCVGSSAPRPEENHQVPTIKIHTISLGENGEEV
# Sequence (P23944 whole entry): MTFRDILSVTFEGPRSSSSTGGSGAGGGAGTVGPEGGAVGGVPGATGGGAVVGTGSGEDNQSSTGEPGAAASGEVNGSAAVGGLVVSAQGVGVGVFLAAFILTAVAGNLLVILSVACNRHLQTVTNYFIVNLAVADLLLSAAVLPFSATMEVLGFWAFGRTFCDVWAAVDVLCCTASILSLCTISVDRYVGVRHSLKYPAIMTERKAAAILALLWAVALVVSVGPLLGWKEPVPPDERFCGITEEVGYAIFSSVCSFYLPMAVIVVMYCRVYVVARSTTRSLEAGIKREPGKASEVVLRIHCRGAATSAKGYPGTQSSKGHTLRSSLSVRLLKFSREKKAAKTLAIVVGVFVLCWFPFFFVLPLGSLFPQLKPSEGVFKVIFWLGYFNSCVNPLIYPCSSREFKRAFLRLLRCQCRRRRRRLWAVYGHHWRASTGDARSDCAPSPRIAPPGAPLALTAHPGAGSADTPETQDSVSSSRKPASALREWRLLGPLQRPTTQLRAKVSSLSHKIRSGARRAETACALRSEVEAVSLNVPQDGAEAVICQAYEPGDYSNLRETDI
# ASSAY COMMENT: Binding affinity at Alpha-1 adrenergic receptor in rat cerebral cortex membranes by [3H]prazosin displacement.
Listed here are compounds together with their documented pKi.
Scale: negative log10 of molar concentration, which is what pKi denotes.

O=c1n(CCCN2CCN(c3cccc(Cl)c3)CC2)c(O)c2n1CCCC2 : 7.74

Please turn your attention to the following entry.
In: Dear colleague, I am looking for the recorded pKi of the following compound: O=c1n(CCCCN2CCN(c3ccccc3)CC2)c(O)c2n1CCCC2
Out: 7.72
